Target: human AMPK α1β1γ1 enzyme (Homo sapiens, UniProt Q13131+Q9Y478)
Construct: purchased Carna Biosciences, Inc
Sequence (Q13131 10-559 limits assumed): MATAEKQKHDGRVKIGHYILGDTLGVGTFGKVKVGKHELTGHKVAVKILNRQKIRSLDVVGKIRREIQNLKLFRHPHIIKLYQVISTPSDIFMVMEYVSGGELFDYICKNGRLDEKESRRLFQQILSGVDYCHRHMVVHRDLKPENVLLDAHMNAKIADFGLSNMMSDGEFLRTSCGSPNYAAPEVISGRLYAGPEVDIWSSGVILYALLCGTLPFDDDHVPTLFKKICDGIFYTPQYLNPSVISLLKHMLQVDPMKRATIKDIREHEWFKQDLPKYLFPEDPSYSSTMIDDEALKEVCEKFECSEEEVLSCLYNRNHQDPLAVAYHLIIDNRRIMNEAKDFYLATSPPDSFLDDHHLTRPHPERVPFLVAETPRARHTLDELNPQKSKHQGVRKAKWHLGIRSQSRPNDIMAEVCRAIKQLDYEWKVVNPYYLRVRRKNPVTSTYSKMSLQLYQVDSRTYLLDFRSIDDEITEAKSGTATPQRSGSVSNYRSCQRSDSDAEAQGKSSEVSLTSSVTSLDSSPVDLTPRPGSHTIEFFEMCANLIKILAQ
Sequence (Q9Y478 whole entry): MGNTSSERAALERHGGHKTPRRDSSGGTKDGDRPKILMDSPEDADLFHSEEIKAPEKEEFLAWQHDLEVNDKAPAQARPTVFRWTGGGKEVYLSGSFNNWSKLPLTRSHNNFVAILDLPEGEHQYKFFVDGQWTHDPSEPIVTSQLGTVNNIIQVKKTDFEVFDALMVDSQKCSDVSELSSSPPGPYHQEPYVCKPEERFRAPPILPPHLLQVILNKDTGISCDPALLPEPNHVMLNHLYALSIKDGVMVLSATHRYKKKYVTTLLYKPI
Sequence (P54619 whole entry partner): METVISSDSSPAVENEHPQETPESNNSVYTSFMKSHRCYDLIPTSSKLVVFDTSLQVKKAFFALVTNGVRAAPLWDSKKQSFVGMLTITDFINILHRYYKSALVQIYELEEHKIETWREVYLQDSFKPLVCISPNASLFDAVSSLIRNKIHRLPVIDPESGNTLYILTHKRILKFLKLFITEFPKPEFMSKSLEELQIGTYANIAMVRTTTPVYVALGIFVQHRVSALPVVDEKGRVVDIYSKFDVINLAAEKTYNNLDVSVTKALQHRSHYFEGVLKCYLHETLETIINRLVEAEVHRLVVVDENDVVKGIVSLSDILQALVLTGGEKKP
Experiment: Evaluation of AMPK activator, Test Example 1 (mobility-shift kinase assay, FL-Peptide 7)
Type: biochemical
Conditions: human AMPK α1β1γ1, relative to control (100%); read-out: Emax (maximum rate of increase in activity within the measurement range)
Known Emax of a selection of compounds

Use the examples below as a reference point.
{"columns": ["compound", "target desc", "measured metric", "test result"],
 "data": [
  ["O=C(O)[C@]1(O)CC[C@@H](Oc2nc3nc(-c4ccc(N5CCOCC5)cc4)c(Cl)cc3[nH]2)CC1", "human AMPK α1β1γ1 enzyme (Homo sapiens, UniProt Q13131+Q9Y478)", "Emax", "236%"],
  ["O=C(O)C1CC=C(c2ccc(-c3nc4nc(OC5CCOCC5)[nH]c4cc3Cl)cc2)CC1 (stereo not shown)", "human AMPK α1β1γ1 enzyme (Homo sapiens, UniProt Q13131+Q9Y478)", "Emax", "221%"],
  ["CN(C)C(=O)[C@H]1C[C@@H](Oc2nc3nc(-c4ccc(C5=CCC(C(=O)O)CC5)cc4)c(Cl)cc3[nH]2)C1 (stereo partly shown)", "human AMPK α1β1γ1 enzyme (Homo sapiens, UniProt Q13131+Q9Y478)", "Emax", "276%"]
]}

Please report Emax for the following compound: CC(C)(C(=O)O)C1CCC(Oc2nc3nc(-c4ccc(C5(CO)CC5)cc4)c(Cl)cc3[nH]2)CC1 (stereo not shown) 257%

Consider the compound O=C(O)COc1nc2nc(-c3ccc(N4CCOCC4)cc3)c(Cl)cc2[nH]1 . State its measured Emax. 270%

Tell me its Emax given CS(=O)(=O)N1CCC(Oc2nc3nc(-c4ccc(N5CCOCC5)cc4)c(Cl)cc3[nH]2)CC1 as the entry. 280%

Using known records, supply Emax for CN(CCO)C(=O)N1CCC(Oc2nc3nc(-c4ccc(C5=CCC(C(=O)O)CC5)cc4)c(Cl)cc3[nH]2)CC1 (stereo not shown) 182%
